- ASSAY_TEXT: in vitro
- CONDITION: African green monkey
Binary label based on CC50 at 3 days with cut-off 50 µM: below gives condition met, not below gives condition not met.

1. C[C@H]1[C@H]2CC[C@H]3[C@@H]4CC=C5C[C@@H](N(C)C)CC[C@]5(C)[C@H]4CC[C@]23CN1C | condition not met
2. C[C@@H]1CC[C@@]2(OC1)O[C@H]1[C@@H](O)[C@H]3[C@@H]4CC[C@H]5C[C@@H](O[C@@H]6O[C@H](CO)[C@H](O[C@@H]7O[C@H](CO)[C@@H](O)[C@H](O[C@@H]8OC[C@@H](O)[C@H](O)[C@H]8O)[C@H]7O[C@@H]7O[C@H](CO)[C@H](O)[C@H](O[C@@H]8O[C@H](CO)[C@@H](O)[C@H](O)[C@H]8O)[C@H]7O)[C@H](O)[C@H]6O)[C@H](O)C[C@]5(C)[C@H]4CC[C@]3(C)[C@H]1[C@@H]2C | condition not met
3. Cc1cc2c(C(C)C)c(O)c(O)c(C=O)c2c(O)c1-c1c(C)cc2c(C(C)C)c(O)c(O)c(C=O)c2c1O | condition met
4. CC(C)C[C@H](NC(=O)[C@H](Cc1ccccc1)NC(=O)c1cnccn1)B(O)O [Bortezomib, bortezomib, reference compound] | condition met
5. COc1cc(/C=C/C(=O)CC(=O)/C=C/c2ccc(O)c(OC)c2)ccc1O | condition not met
